Overview of recorded relative viability for various compounds
System: VA-ES-BJ
assay remarks: relative viability vs DMSO control (72 h) (fraction); higher = more viable cells
cond: 0.00457 µM
No unit in the answer, please; the number alone is enough.

Answered cases to consult:
[[record]]
smiles_repr = "CCN(CC)CCNC(=O)c1c(C)[nH]c(/C=C2\\C(=O)Nc3ccc(F)cc32)c1C"
recorded_number = 1.04

[[record]]
smiles_repr = "CC(C)NC[C@@H](C(=O)N1CCN(c2ncnc3c2[C@H](C)C[C@H]3O)CC1)c1ccc(Cl)cc1"
recorded_number = 1.02

[[record]]
smiles_repr = "O=S(=O)(c1cccc2cnccc12)N1CCCNCC1"
recorded_number = 0.974

[[record]]
smiles_repr = "CC(C)(C)c1nc(-c2cccc(NS(=O)(=O)c3c(F)cccc3F)c2F)c(-c2ccnc(N)n2)s1"
recorded_number = 1.05

[[record]]
smiles_repr = "COc1cc(OC)c(/C=C/S(=O)(=O)Cc2ccc(OC)c(NCC(=O)O)c2)c(OC)c1"
recorded_number = 1.03


Next:
Item N#CCNC(=O)c1ccc(-c2ccnc(Nc3ccc(N4CCOCC4)cc3)n2)cc1 : provide relative viability 1.07

###

Tested on: HS729
assay remarks: relative viability vs DMSO control (72 h) (fraction); higher = more viable cells
cond: 0.01372 µM
Overview of recorded relative viability for various compounds
No unit in the answer, please; the number alone is enough.

[[record]]
compound = "O=C1NC(=O)[C@@H](c2cn3c4c(cccc24)CCC3)[C@@H]1c1c[nH]c2ccccc12 [Tivantinib]"
system_name = "HS729"
recorded_number = 0.916

[[record]]
compound = "Cc1cccc(-c2nn3c(c2-c2ccnc4ccc(C(N)=O)cc24)CCC3)n1 [Galunisertib]"
system_name = "HS729"
recorded_number = 0.901


Next:
Item CC1(C)CC=C(c2nc(C3CC(C)(C)OC(C)(C)C3)ccc2NC(=O)c2nc(C#N)c[nH]2)CC1 [Edicotinib] : provide relative viability 0.89

###

System: G401
assay remarks: relative viability vs DMSO control (72 h) (fraction); higher = more viable cells
cond: 0.1235 µM
assay readout: relative viability
No unit in the answer, please; the number alone is enough.

Item CC(C)Oc1ccc(-c2nn([C@@H](C)c3oc4ccc(F)cc4c(=O)c3-c3cccc(F)c3)c3ncnc(N)c23)cc1F [Umbralisib] : provide relative viability 1.02

Item COc1cc(OC)c(/C=C/S(=O)(=O)Cc2ccc(OC)c(NCC(=O)O)c2)c(OC)c1 [Rigosertib] : provide relative viability 0.983

Item C[C@]12O[C@H](C[C@]1(O)CO)n1c3ccccc3c3c4c(c5c6ccccc6n2c5c31)CNC4=O [Lestaurtinib] : provide relative viability 0.985

###

Tested on: SW982
assay remarks: relative viability vs DMSO control (72 h) (fraction); higher = more viable cells
cond: 0.00017 µM
assay readout: relative viability
No unit in the answer, please; the number alone is enough.

Answered cases to consult:
[[record]]
molecule = "COC(=O)[C@@]1(O)C[C@H]2O[C@]1(C)n1c3ccccc3c3c4c(c5c6ccccc6n2c5c31)C(=O)NC4 [K-252a]"
assay_readout = "relative viability"
recorded_number = 1.05

[[record]]
molecule = "COc1cc(OC)c(/C=C/S(=O)(=O)Cc2ccc(OC)c(NCC(=O)O)c2)c(OC)c1"
assay_readout = "relative viability"
recorded_number = 1.06

[[record]]
molecule = "Cn1ncnc1[C@H]1c2n[nH]c(=O)c3cc(F)cc(c23)N[C@@H]1c1ccc(F)cc1"
assay_readout = "relative viability"
recorded_number = 0.911


Next:
Item O=c1sn(-c2cccc3ccccc23)c(=O)n1Cc1ccccc1 : provide relative viability 1.07

###

System: KHOS-240S
assay remarks: relative viability vs DMSO control (72 h) (fraction); higher = more viable cells
cond: 0.00457 µM
Overview of recorded relative viability for various molecules
No unit in the answer, please; the number alone is enough.

Answered cases to consult:
[[record]]
smiles_repr = "CC(C)(C)c1nc(-c2cccc(NS(=O)(=O)c3c(F)cccc3F)c2F)c(-c2ccnc(N)n2)s1"
recorded_number = 1.03

[[record]]
smiles_repr = "COc1cc(Nc2ncc(F)c(Nc3ccc4c(n3)N(COP(=O)(O)O)C(=O)C(C)(C)O4)n2)cc(OC)c1OC"
recorded_number = 1.08

[[record]]
smiles_repr = "Cc1cccc(-c2nn3c(c2-c2ccnc4ccc(C(N)=O)cc24)CCC3)n1"
recorded_number = 1.06


Next:
Item CC(C)(O)CNc1nc(Nc2ccnc(C(F)(F)F)c2)nc(-c2cccc(C(F)(F)F)n2)n1 : provide relative viability 1.06

###

System: KHOS-240S
assay remarks: relative viability vs DMSO control (72 h) (fraction); higher = more viable cells
cond: 0.1235 µM
assay readout: relative viability
No unit in the answer, please; the number alone is enough.

Answered cases to consult:
[[record]]
smiles_repr = "CC1(COc2ccc3c(c2)ncn3-c2ccc3cccc(N4CCC(N)CC4)c3n2)COC1"
assay_readout = "relative viability"
recorded_number = 0.986

[[record]]
smiles_repr = "Cc1cccc(-c2nn3c(c2-c2ccnc4ccc(C(N)=O)cc24)CCC3)n1"
assay_readout = "relative viability"
recorded_number = 0.996

[[record]]
smiles_repr = "O=C(Nc1ccc(OC(F)(F)Cl)cc1)c1cnc(N2CC[C@@H](O)C2)c(-c2cc[nH]n2)c1"
assay_readout = "relative viability"
recorded_number = 0.996


Item Cc1cc2cc(Oc3ccnc(Nc4cccc(CS(=O)(=O)NCCN(C)C)c4)n3)ccc2[nH]1 : provide relative viability 1.01

###

Overview of recorded relative viability for various compounds
System: SW872
assay remarks: relative viability vs DMSO control (72 h) (fraction); higher = more viable cells
cond: 0.3704 µM

Answered cases to consult:
[[record]]
compound = "CN1CC[C@@H](NC(=O)Nc2ccc(C#N)cc2)C[C@@H]1c1nc2ccccc2[nH]1"
result = 1.07

[[record]]
compound = "Cn1ncnc1[C@H]1c2n[nH]c(=O)c3cc(F)cc(c23)N[C@@H]1c1ccc(F)cc1"
result = 0.799

[[record]]
compound = "O=C1NC(=O)[C@@H](c2cn3c4c(cccc24)CCC3)[C@@H]1c1c[nH]c2ccccc12 [Tivantinib]"
result = 0.933

[[record]]
compound = "CC#CC(=O)N1CCC[C@H]1c1nc(-c2ccc(C(=O)Nc3ccccn3)cc2)c2c(N)nccn12"
result = 0.997


Next:
Item O=c1sn(-c2cccc3ccccc23)c(=O)n1Cc1ccccc1 : provide relative viability 1.05

###

Test system: SK-ES-1
assay remarks: relative viability vs DMSO control (72 h) (fraction); higher = more viable cells
cond: 3.333 µM
assay readout: relative viability
No unit in the answer, please; the number alone is enough.

[[record]]
smiles_repr = "Cn1cc(C2=C(c3cn(C4CCN(Cc5ccccn5)CC4)c4ccccc34)C(=O)NC2=O)c2ccccc21"
recorded_number = 1.1


Item CNC(=O)c1nnc(NC(=O)C2CC2)cc1Nc1cccc(-c2ncn(C)n2)c1OC : provide relative viability 0.891

Item CCN1C(=O)N(c2c(F)c(OC)cc(OC)c2F)Cc2cnc3[nH]c(CN4CCOCC4)cc3c21 : provide relative viability 0.354

###

Overview of recorded relative viability for various compounds
Test system: SW684
assay remarks: relative viability vs DMSO control (72 h) (fraction); higher = more viable cells
cond: 1.111 µM
No unit in the answer, please; the number alone is enough.

Item CCN(CC)CCNC(=O)c1c(C)[nH]c(/C=C2\C(=O)Nc3ccc(F)cc32)c1C [Sunitinib] : provide relative viability 0.871

###

System: SW982
assay remarks: relative viability vs DMSO control (72 h) (fraction); higher = more viable cells
cond: 0.00051 µM
relative viability strictly less than 1 = Criterion met. Otherwise Criterion not met.

Examples with answers:
[[record]]
compound = "CC1(COc2ccc3c(c2)ncn3-c2ccc3cccc(N4CCC(N)CC4)c3n2)COC1 [Crenolanib]"
system_name = "SW982"
cat = "Criterion met"

[[record]]
compound = "CCC(=O)N1CC[C@H](Nc2ncnc3c2CN(c2cnc(OC)c(C(F)(F)F)c2)CC3)C1 [Leniolisib]"
system_name = "SW982"
cat = "Criterion not met"

[[record]]
compound = "O=c1sn(-c2cccc3ccccc23)c(=O)n1Cc1ccccc1 [Tideglusib]"
system_name = "SW982"
cat = "Criterion not met"

[[record]]
compound = "C[C@]12O[C@H](C[C@]1(O)CO)n1c3ccccc3c3c4c(c5c6ccccc6n2c5c31)CNC4=O [Lestaurtinib]"
system_name = "SW982"
cat = "Criterion not met"

[[record]]
compound = "C[C@H](Nc1ncnc2nc[nH]c12)c1cc2cccc(Cl)c2c(=O)n1-c1ccccc1 [Duvelisib]"
system_name = "SW982"
cat = "Criterion not met"


Please check: relative viability for Cc1cc2cc(Oc3ccnc(Nc4cccc(CS(=O)(=O)NCCN(C)C)c4)n3)ccc2[nH]1 [Sulfatinib] , strictly under 1 or not? Criterion not met

###

System: HS729
assay remarks: relative viability vs DMSO control (72 h) (fraction); higher = more viable cells
cond: 0.00017 µM
assay readout: relative viability
No unit in the answer, please; the number alone is enough.

Answered cases to consult:
[[record]]
smiles_repr = "CC(C)NC[C@@H](C(=O)N1CCN(c2ncnc3c2[C@H](C)C[C@H]3O)CC1)c1ccc(Cl)cc1"
recorded_number = 1

[[record]]
smiles_repr = "CC[C@@H]1CN(C(=O)NCC(F)(F)F)C[C@@H]1c1cnc2cnc3[nH]ccc3n12"
recorded_number = 1.02

[[record]]
smiles_repr = "COc1cc(OC)c(/C=C/S(=O)(=O)Cc2ccc(OC)c(NCC(=O)O)c2)c(OC)c1"
recorded_number = 0.973


Next:
Item CCN1C(=O)N(c2c(F)c(OC)cc(OC)c2F)Cc2cnc3[nH]c(CN4CCOCC4)cc3c21 : provide relative viability 1

src = the supplement of paper PMC10883282
